Data provenance is ChEMBL document CHEMBL3352451.

biological target: Delta-type opioid receptor (Rattus norvegicus); test: Displacement of [3H][Ile5,6]deltorphin-2 from DOR in Wistar rat brain membranes by liquid scintillation counting method
Sequence (P33533 whole entry): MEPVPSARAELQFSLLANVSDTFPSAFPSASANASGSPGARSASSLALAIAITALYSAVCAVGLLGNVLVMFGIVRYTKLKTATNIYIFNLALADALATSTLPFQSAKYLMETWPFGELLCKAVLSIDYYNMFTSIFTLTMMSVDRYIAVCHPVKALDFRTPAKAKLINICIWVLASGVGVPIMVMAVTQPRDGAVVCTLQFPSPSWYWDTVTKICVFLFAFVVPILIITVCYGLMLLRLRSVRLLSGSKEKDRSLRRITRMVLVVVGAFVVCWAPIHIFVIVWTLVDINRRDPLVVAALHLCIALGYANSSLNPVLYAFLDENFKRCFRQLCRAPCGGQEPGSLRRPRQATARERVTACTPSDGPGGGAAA
molecules and their reported IC50

{"Line notation": "NC(=O)[C@@H]1CC(=O)N[C@H]2CC[C@H](CC2)C[C@@H](NC(=O)[C@@H](N)Cc2ccc(O)cc2)C(=O)N[C@@H](Cc2ccccc2)C(=O)N[C@@H](Cc2ccccc2)C(=O)N1", "Readout qualifier": ">", "IC50 (nM)": 1000}
{"Line notation": "Cc1cc(O)cc(C)c1C[C@H](N)C(=O)N[C@@H]1C[C@H]2CC[C@H](CC2)NC(=O)C[C@@H](C(N)=O)NC(=O)[C@H](Cc2ccccc2)NC(=O)[C@H](Cc2ccccc2)NC1=O", "Readout qualifier": ">", "IC50 (nM)": 1000}
{"Line notation": "NC(=O)[C@@H]1CC(=O)N[C@H]2CC[C@@H](CC2)C[C@@H](NC(=O)[C@@H](N)Cc2ccc(O)cc2)C(=O)N[C@@H](Cc2ccccc2)C(=O)N[C@@H](Cc2ccccc2)C(=O)N1", "Readout qualifier": "=", "IC50 (nM)": 3.9}
{"Line notation": "Cc1cc(O)cc(C)c1C[C@H](N)C(=O)N[C@@H]1C[C@H]2CC[C@@H](CC2)NC(=O)C[C@@H](C(N)=O)NC(=O)[C@H](Cc2ccccc2)NC(=O)[C@H](Cc2ccccc2)NC1=O", "Readout qualifier": "=", "IC50 (nM)": 0.38}

---

IC50 reference
biological target: Kappa-type opioid receptor (Cavia porcellus); test: Displacement of [3H]nor-BNI from KOR in Dunkin Hartley guinea pig membranes by liquid scintillation counting method
Sequence (P41144 whole entry): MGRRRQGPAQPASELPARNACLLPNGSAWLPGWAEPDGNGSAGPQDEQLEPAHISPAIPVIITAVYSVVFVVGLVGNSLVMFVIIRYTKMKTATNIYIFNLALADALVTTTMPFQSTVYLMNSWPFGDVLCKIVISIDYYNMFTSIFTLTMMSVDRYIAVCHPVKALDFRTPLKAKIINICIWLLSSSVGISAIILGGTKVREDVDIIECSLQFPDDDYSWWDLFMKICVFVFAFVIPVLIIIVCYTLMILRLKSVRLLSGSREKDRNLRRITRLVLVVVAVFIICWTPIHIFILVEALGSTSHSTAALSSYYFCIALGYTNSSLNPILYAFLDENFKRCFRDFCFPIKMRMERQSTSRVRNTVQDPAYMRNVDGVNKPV
Bridge positions count the residues as written; N and C are the ends. Square brackets hold non-standard residues; d marks the D form. Peptide text beside a SMILES is read from it.
Measured endpoint: IC50 (nM)

{"Compound": "Cc1cc(O)cc(C)c1C[C@H](N)C(=O)N[C@@H]1C[C@H]2CC[C@H](CC2)NC(=O)C[C@@H](C(N)=O)NC(=O)[C@H](Cc2ccccc2)NC(=O)[C@H](Cc2ccccc2)NC1=O", "Measured endpoint": "IC50", "Unit abbrev": "nM", "Readout qualifier": ">", "Quantitative readout": 1000}
{"Compound": "NC(=O)[C@@H]1CC(=O)NCCCC[C@@H](NC(=O)[C@@H](N)Cc2ccc(O)cc2)C(=O)N[C@@H](Cc2ccccc2)C(=O)N[C@@H](Cc2ccccc2)C(=O)N1 (H-Y[dK]FFD-NH2; lactam 2-5)", "Measured endpoint": "IC50", "Unit abbrev": "nM", "Readout qualifier": "=", "Quantitative readout": 2.36}
{"Compound": "Cc1cc(O)cc(C)c1C[C@H](N)C(=O)N[C@@H]1C[C@H]2CC[C@@H](CC2)NC(=O)C[C@@H](C(N)=O)NC(=O)[C@H](Cc2ccccc2)NC(=O)[C@H](Cc2ccccc2)NC1=O", "Measured endpoint": "IC50", "Unit abbrev": "nM", "Readout qualifier": "=", "Quantitative readout": 25}
